Target: Pancreatic Amylase (Homo sapiens, UniProt P04746)
Sequence (P04746 16-511): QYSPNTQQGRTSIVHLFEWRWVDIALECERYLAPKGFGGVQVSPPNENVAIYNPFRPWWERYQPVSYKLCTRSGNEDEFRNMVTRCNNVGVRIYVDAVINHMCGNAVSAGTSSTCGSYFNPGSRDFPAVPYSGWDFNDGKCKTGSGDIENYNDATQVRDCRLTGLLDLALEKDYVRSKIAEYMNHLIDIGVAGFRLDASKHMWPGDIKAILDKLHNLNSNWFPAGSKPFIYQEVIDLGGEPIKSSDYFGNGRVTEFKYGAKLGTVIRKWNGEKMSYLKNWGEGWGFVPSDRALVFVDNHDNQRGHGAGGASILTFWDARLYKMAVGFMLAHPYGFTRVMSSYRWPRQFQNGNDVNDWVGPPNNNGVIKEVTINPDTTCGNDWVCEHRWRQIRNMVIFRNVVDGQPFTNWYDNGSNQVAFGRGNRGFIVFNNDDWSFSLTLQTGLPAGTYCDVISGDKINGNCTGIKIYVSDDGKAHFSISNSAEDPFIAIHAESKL
Experiment: Cleavage pattern of substrates on hydrolysis with pancreatic amylase
Consider the following compounds; for each one, report its Cleavage Position (% of total) G 1/2.

INSERT INTO measurements (compound, measured_result) VALUES
  ('O=[N+]([O-])c1ccc(O[C@H]2O[C@H](CO)[C@@H](O[C@H]3O[C@H](CO)[C@@H](O[C@H]4O[C@H](CO)[C@@H](O[C@H]5O[C@H](CO)[C@@H](O[C@H]6O[C@@H]7COC(c8ccccc8)O[C@H]7[C@H](O)[C@H]6O)[C@H](O)[C@H]5O)[C@H](O)[C@H]4O)[C@H](O)[C@H]3O)[C@H](O)[C@H]2O)cc1 (stereo partly shown) [Substrate 4]', '2.5 % of total'),
  ('CC(C)(C)[Si](C)(C)OC[C@H]1O[C@H](O[C@H]2[C@H](O)[C@@H](O)[C@@H](O[C@H]3[C@H](O)[C@@H](O)[C@@H](O[C@H]4[C@H](O)[C@@H](O)[C@@H](O[C@H]5[C@H](O)[C@@H](O)[C@@H](O[C@H]6[C@H](O)[C@@H](O)[C@@H](O[C@H]7[C@H](O)[C@@H](O)[C@@H](Oc8ccc([N+](=O)[O-])cc8)O[C@@H]7CO)O[C@@H]6CO)O[C@@H]5CO)O[C@@H]4CO)O[C@@H]3CO)O[C@@H]2CO)[C@H](O)[C@@H](O)[C@@H]1O [Substrate 1]', '1.1 % of total'),
  ('CC(C)(C)[Si](C)(C)OC[C@H]1O[C@H](O[C@H]2[C@H](O)[C@@H](O)[C@@H](O[C@H]3[C@H](O)[C@@H](O)[C@@H](O[C@H]4[C@H](O)[C@@H](O)[C@@H](O[C@H]5[C@H](O)[C@@H](O)[C@@H](Oc6ccc([N+](=O)[O-])cc6)O[C@@H]5CO)O[C@@H]4CO)O[C@@H]3CO)O[C@@H]2CO)[C@H](O)[C@@H](O)[C@@H]1O [Substrate 3]', '59.4 % of total');

API: the following record is the query input.
Give the reported Cleavage Position (% of total) G 1/2 for this compound. O=[N+]([O-])c1ccc(O[C@H]2O[C@H](CO)[C@@H](O[C@H]3O[C@H](CO)[C@@H](O[C@H]4O[C@H](CO)[C@@H](O[C@H]5O[C@H](CO)[C@@H](O[C@H]6O[C@H](CO)[C@@H](O[C@H]7O[C@H](CO)[C@@H](O[C@H]8O[C@@H]9COC(c%10ccccc%10)O[C@H]9[C@H](O)[C@H]8O)[C@H](O)[C@H]7O)[C@H](O)[C@H]6O)[C@H](O)[C@H]5O)[C@H](O)[C@H]4O)[C@H](O)[C@H]3O)[C@H](O)[C@H]2O)cc1 (stereo partly shown) [Substrate 2]
4.0 % of total
